- measurement-target: Endonuclease 8-like 2 (Homo sapiens) (UniProt Q969S2);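 also: fluorescence at 594 nm reports NEIL2 cutting and release of a quenched double-stranded DNA oligo substrate, reduced signal read as inhibition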
- Sequence (Q969S2 whole entry): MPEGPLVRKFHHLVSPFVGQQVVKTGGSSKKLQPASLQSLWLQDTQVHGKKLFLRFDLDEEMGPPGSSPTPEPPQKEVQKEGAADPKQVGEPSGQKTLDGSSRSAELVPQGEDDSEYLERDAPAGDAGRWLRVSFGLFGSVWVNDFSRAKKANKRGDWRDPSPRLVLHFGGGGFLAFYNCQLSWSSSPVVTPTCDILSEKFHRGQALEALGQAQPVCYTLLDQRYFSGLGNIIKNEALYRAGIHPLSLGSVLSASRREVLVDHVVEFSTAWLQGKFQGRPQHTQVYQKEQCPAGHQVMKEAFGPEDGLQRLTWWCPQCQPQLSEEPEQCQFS
- experimental-conditions: Compound Concentration 10.0 uM, Hit No
- Description: Inhibition of NEIL2 by quantifying inhibition of NEIL2-mediated cleavage and dissociation of quenched duplex DNA oligonucleotides, measured as fluorescence at 594 nm.
Please go through the items and note down their inhibition.

[[record]]
molecule = "NC(=O)c1ccc(CNC(=O)NC[C@H]2CN(Cc3ccc(Cl)c(Cl)c3)CCO2)cc1"
val = "16.2%"

[[record]]
molecule = "Clc1ccc(C2CC3CCC2N3)cn1 (stereo not given)"
val = "-3.41%"

[[record]]
molecule = "CCNC(=O)NS(=O)(=O)c1sc(CC(C)C)cc1-c1ccc(Cn2c(-c3ccccc3)nc(OC)c2C=O)cc1"
val = "7.29%"

[[record]]
molecule = "O=C1NC(c2ccccn2)Sc2ccccc21 (stereo not given)"
val = "-4.83%"


Now let's try a different one.
Task: Given N=C(N)NCCC[C@H](NC(=O)COCC(c1ccccc1)c1ccccc1)C(=O)O , state its recorded inhibition.
Output: -7.47%

Values were extracted from ChEMBL document CHEMBL5665443.
